Experiment: Multi-component pharmacokinetic study of GQD, GQD-GC and single herb extracts in rats (plasma, LC/MS/MS)
Assay type: in vivo, Sprague-Dawley rats
Settings: male, Sprague-Dawley, rat; GQD group: rats, oral GQD extract 18.9 g/kg, plasma; read-out: T1/2 (converted)
Binary label based on half-life with cut-off 7 h: below gives class 1, not below gives class 0.

>  <Compound>
COc1cc2c(cc1OC)-c1cc3ccc4c(c3c[n+]1CC2)OCO4 [Compound 22, epiberberine]

>  <Qualitative Label>
class 1

$$$$
>  <Compound>
CC1(C)[C@@H](O)CC[C@]2(C)[C@H]3C(=O)C=C4[C@@H]5C[C@@](C)(C(=O)O)CC[C@]5(C)CC[C@@]4(C)[C@]3(C)CC[C@@H]12 [Compound 40, glycyrrhetinic acid]

>  <Qualitative Label>
class 0

$$$$
>  <Compound>
COc1c(O)c(O[C@@H]2O[C@H](C(=O)O)[C@@H](O)[C@H](O)[C@H]2O)cc2oc(-c3ccccc3)cc(=O)c12 [Compound 38, lateriflorein 7-O-glucuronide]

>  <Qualitative Label>
class 1

$$$$
>  <Compound>
O=c1c(-c2ccc(O)cc2)coc2c(C3OC(COC4OCC(O)(CO)C4O)C(O)C(O)C3O)c(O)cc(O)c12 (centres unmarked) [Compound 6]

>  <Qualitative Label>
class 1

$$$$
>  <Compound>
O=C(O)[C@H]1O[C@@H](Oc2cc3oc(-c4ccccc4)cc(=O)c3c(O)c2O)[C@H](O)[C@@H](O)[C@@H]1O [Compound 17, baicalin]

>  <Qualitative Label>
class 1

$$$$
>  <Compound>
COc1c(O)cc(OC2OC(CO)C(O)C(O)C2O)c2c(=O)cc(-c3ccccc3)oc12 (centres unmarked) [Compound 13, wogonin 5-O-glucoside]

>  <Qualitative Label>
class 0

$$$$
>  <Compound>
COc1ccc(C2=CC(=O)OC2Cc2ccc(O)cc2)c(OC2OC(CO)C(O)C(O)C2O)c1 [Compound 41, (4S)-puerol B 2″-O-glucopyranoside]

>  <Qualitative Label>
class 0

$$$$
>  <Compound>
COc1ccc2c(c1O)-c1c(O)c(OC)cc3c1[C@H](C2)[N+](C)(C)CC3 [Compound 19, magnoflorine]

>  <Qualitative Label>
class 0

$$$$
>  <Compound>
CC1(C)[C@@H](O[C@H]2O[C@H](C(=O)O)[C@@H](O)[C@H](O)[C@H]2O[C@@H]2O[C@H](C(=O)O)[C@@H](O)[C@H](O)[C@H]2O)CC[C@]2(C)[C@H]3C(=O)C=C4[C@@H]5C[C@@](C)(C(=O)O)CC[C@]5(C)CC[C@@]4(C)[C@]3(C)CC[C@@H]12 [Compound 36, glycyrrhizic acid]

>  <Qualitative Label>
class 1

$$$$
>  <Compound>
O=C(/C=C/c1ccc(O)cc1)c1ccc(O)cc1O [Compound 28, isoliquiritigenin]

>  <Qualitative Label>
class 1

$$$$

Query: Does this compound meet the criterion half-life < 7 h? COc1ccc(-c2coc3cc(O)ccc3c2=O)cc1 [Compound 32, formononetin]
Response: class 0
